Target entity: Exportin-1 (Homo sapiens)
Method notes: Inhibition of CRM1-mediated nucleocytoplasmic transport of RevM5 mutant in HEK293 cells assessed as RevM5-GFP nuclear localization at 10 ug/ml after 2 hrs by fluorescence microscopy
Type: cell-based
The source made the active and inactive calls. The calls are words filed in the database; no cut-off is given here.
Recorded endpoint: Activity

Check out these entries, answers already filled in.
> print(dat)
             compound.structure.string  recorded.endpoint   reading
1  CCOC(=O)/C=C/n1nnc(-c2cccc(Cl)c2)n1           Activity    Active
2               Ic1cccc(-c2nnn[nH]2)c1           Activity  inactive
3   CCOC(=O)/C=C\n1nnc(-c2cccc(F)c2)n1           Activity    Active
4        CCOC(=O)/C=C/n1ccnc1-c1ccccc1           Activity  inactive
5     CCOC(=O)/C=C/n1cnc(-c2ccccc2N)n1           Activity  inactive
6          CCOC(=O)C=Cn1ccnc1-c1ccccc1           Activity  inactive

Kindly state the measured Activity obtained for CCOC(=O)/C=C\n1nnc(-c2cccc(I)c2)n1 with Exportin-1 (Homo sapiens).
Active

# query: Activity | item CCOC(=O)/C=C\n1ccc(-c2ccccc2)n1 | system: Exportin-1 (Homo sapiens)
inactive

What is its Activity for Exportin-1 (Homo sapiens)? Entry: CCOC(=O)/C=C\n1nnc(-c2cc(Cl)ccc2N)n1
Active

Report Activity for CCOC(=O)/C=C/n1nnc(-c2cccc(I)c2)n1 tested on Exportin-1 (Homo sapiens).
Active

So what Activity did CCOC(=O)/C=C/n1ccc(-c2ccccc2)n1 get with Exportin-1 (Homo sapiens)?
inactive

Request body: readout Activity, system Exportin-1 (Homo sapiens), query CCOC(=O)/C=C\n1nnc(-c2cccc(Cl)c2)n1 . Return the value.
Active

Exportin-1 (Homo sapiens) / Activity / CCOC(=O)/C=C/n1nnnc1-c1ccc(Cl)cc1 : value?
inactive

For the record CCOC(=O)/C=C/n1ncnn1 , what value of Activity is listed for Exportin-1 (Homo sapiens)?
inactive

Return Activity measured with Exportin-1 (Homo sapiens) given this molecule: CCOC(=O)/C=C\n1nnc(-c2cccc(Br)c2)n1
Active

Give Activity (Exportin-1 (Homo sapiens)) of the following molecule: CCOC(=O)/C=C\n1nnc(-c2ccccc2)n1
Active

Which Activity is reported with Exportin-1 (Homo sapiens) for this entry: c1ccc(-c2nnn[nH]2)cc1 ?
inactive

Fill in the recorded Activity for this molecule, with Exportin-1 (Homo sapiens) as test system: CCOC(=O)/C=C/n1nnc(-c2cccc(F)c2)n1
Active

Short answer please: Activity, Exportin-1 (Homo sapiens), entry CCOC(=O)/C=C/n1nnc(-c2ccc(Cl)cc2)n1
Active

Record CCOC(=O)/C=C\n1nnc(-c2ccc(Cl)cc2)n1 : what is its Activity with Exportin-1 (Homo sapiens)?
Active

Give the reported Activity for Fc1cccc(-c2nnn[nH]2)c1 (system: Exportin-1 (Homo sapiens)).
inactive
